All figures here come from PubChem BioAssay (NCI).

Test system: BT-549 breast
assay_text: NCI tumour cell line growth inhibition, 48 h
Each entry below lists one item and its recorded TGI value.

INSERT INTO measurements (compound, observed) VALUES
  ('c1ccc(Nn2c(CCCCCCCCc3nnc(COc4ccccc4)n3Nc3ccccc3)nnc2COc2ccccc2)cc1', '> 300 µM');

Bench note: what TGI did "COc1ccc2nc(NCN3C(=O)c4ccccc4C3=O)sc2c1" show?
> 100 µM

For Cc1ccc(C(=O)C2=CN=C3C(=O)N(c4ccccc4)N(C)C3(C)C2=N)cc1 (stereo not drawn) then?
> 100 µM

====

System: SN12C renal
assay_text: NCI tumour cell line growth inhibition, 48 h
observable: TGI

Some solved cases for reference:
INSERT INTO assay_data (compound, experimental_system, observable, observed) VALUES
  ('COP(=O)(OC)c1ccc(NCc2cc(O)ccc2O)cc1', 'SN12C renal', 'TGI', '> 70.6 µM'),
  ('COc1cc2c(cc1OC)C(CC1(O)CCCCC1)N(S(=O)(=O)c1ccc(C)cc1)CC2 (stereo not given)', 'SN12C renal', 'TGI', '> 10 µM'),
  ('CC1=Nc2c(C#N)ncn2N=C(C)C1', 'SN12C renal', 'TGI', '> 100 µM'),
  ('COc1ccc(S(=O)(=O)Nc2ccc(-c3csc(N4C(=O)/C(=C/c5ccccc5)N=C4c4ccccc4)n3)cc2)cc1Cl', 'SN12C renal', 'TGI', '> 100 µM');

Lab note: next compound to report on.
Bench note: what TGI did "c1cncc(-c2nc3ccccc3s2)c1" show?
> 100 µM
